STUDY SYSTEM: furin, P09958;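 also: purified furin at 1:10 enzyme:substrate in 50 mM HEPES pH 7.5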
Sequence (P09958 whole entry): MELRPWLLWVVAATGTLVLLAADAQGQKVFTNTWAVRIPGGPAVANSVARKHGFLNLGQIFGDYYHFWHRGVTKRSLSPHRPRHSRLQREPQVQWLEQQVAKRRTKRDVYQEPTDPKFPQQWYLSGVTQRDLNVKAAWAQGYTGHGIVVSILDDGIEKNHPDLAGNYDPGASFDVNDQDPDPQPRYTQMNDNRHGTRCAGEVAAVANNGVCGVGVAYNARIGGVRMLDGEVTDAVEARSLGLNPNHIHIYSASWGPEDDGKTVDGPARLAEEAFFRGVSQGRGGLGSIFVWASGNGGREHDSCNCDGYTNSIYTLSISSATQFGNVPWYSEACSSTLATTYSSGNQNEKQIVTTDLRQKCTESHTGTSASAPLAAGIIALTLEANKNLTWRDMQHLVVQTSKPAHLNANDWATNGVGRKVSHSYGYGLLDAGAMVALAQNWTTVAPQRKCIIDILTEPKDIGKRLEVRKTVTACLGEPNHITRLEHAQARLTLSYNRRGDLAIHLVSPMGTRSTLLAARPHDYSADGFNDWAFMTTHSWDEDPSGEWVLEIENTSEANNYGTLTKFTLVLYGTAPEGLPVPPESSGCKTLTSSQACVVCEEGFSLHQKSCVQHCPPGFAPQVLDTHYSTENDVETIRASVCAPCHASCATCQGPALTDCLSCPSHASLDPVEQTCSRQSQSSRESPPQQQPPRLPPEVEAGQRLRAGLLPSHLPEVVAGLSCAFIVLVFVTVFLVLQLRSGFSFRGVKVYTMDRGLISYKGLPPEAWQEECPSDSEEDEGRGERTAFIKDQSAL
PROCEDURE TEXT: furin cleavage Z-score vs untreated control; higher = more cleavage, active = 3.5 or more, inactive = 1 or less, 8 variable residues between constant flanks
CONDITION SUMMARY: 15 min
Some of the results follow. How many sequences the whole screen found active is unknown.
Respond using exactly one of the listed classes: active, inactive

Check out these entries, answers already filled in.
primary_sequence="CAAFSLHSYSAGNASASA [HC1606]" class=inactive
primary_sequence="CAEVPCHRPEAGNASASA [HC2412]" class=inactive

Please find the next sequence below.
Prompt: Could you kindly confirm the outcome this assay logged for CARAKRQKDFAGNASASA [FS-2885] ?
Completion: active
